Test system: SK-OV-3
Experiment: Antiproliferative activity against human SKOV3 cells after 48 hrs by SRB assay
Assay type: functional
Conditions: SK-OV-3, 48 h, read-out: GI50
measured.attribute: GI50 (nM)
Express the result in nM but write the number alone.

Reference set (2 entries):
molecule: COc1cc2c(cc1O)oc(=O)c1c2cc2c3cc(OC)c(O)cc3ccn21
u: nM
GI50: 83
//
molecule: COc1cc2c(cc1O)oc(=O)c1c2c(Cl)c2c3cc(OC)c(O)cc3ccn21
u: nM
GI50: 250

Fill in: GI50 on SK-OV-3, entry `COc1cc2c(cc1O)oc(=O)c1c2c(C=O)c2c3cc(OC)c(O)cc3ccn21`
230

Fill in: GI50 on SK-OV-3, entry `C#CCn1c2c3cc(OC)c(O)cc3ccc2c2c(=O)oc3cc(O)c(OC)cc3c21`
56

Fill in: GI50 on SK-OV-3, entry CCc1c2c(nc3ccc(O)cc13)-c1cc3c(c(=O)n1C2)COC(=O)[C@]3(O)CC [7-ETHYL-10-HYDROXYCAMPTOTHECIN]
23

====

System: ACHN
Experiment: Antiproliferative activity against human ACHN cells after 48 hrs by SRB assay
Assay type: functional
Settings: read-out: GI50
measured.attribute: GI50 (nM)
Express the result in nM but write the number alone.

Reference set (4 entries):
compound: COc1cc2c(ccc3c4c(=O)oc5cc(OC(=O)[C@@H](N)C(C)C)c(OC)cc5c4n(C)c23)cc1OC(=O)[C@@H](N)C(C)C.O=C(O)C(F)(F)F.O=C(O)C(F)(F)F
GI50, nM: 2.9
--
compound: COc1cc2c(ccc3c2[nH]c2c4cc(OC)c(O)cc4oc(=O)c32)cc1O
GI50, nM: 110
--
compound: C=CCn1c2c3cc(OC)c(O)cc3ccc2c2c(=O)oc3cc(O)c(OC)cc3c21
GI50, nM: 4.2
--
compound: COc1cc2c(cc1O)oc(=O)c1c2c(C=O)c2c3cc(OC)c(O)cc3ccn21
GI50, nM: 26

Answer with the recorded GI50 for the compound listed here: `COc1cc2c(cc1O)oc(=O)c1c2c(CN(C)C)c2c3cc(OC)c(O)cc3ccn21`
44

Answer with the recorded GI50 for the compound listed here: `COc1cc2c(cc1O)oc(=O)c1c2cc2c3cc(OC)c(O)cc3ccn21`
14

Answer with the recorded GI50 for the compound listed here: `COc1cc2c(cc1O)oc(=O)c1c2c(C)c2c3cc(OC)c(O)cc3ccn21`
3.8

Answer with the recorded GI50 for the compound listed here: `COc1cc2c(cc1O)oc(=O)c1c2c(F)c2c3cc(OC)c(O)cc3ccn21`
28

====

Molecular target: UniProt:F1MN93
Sequence (F1MN93 as listed by the source): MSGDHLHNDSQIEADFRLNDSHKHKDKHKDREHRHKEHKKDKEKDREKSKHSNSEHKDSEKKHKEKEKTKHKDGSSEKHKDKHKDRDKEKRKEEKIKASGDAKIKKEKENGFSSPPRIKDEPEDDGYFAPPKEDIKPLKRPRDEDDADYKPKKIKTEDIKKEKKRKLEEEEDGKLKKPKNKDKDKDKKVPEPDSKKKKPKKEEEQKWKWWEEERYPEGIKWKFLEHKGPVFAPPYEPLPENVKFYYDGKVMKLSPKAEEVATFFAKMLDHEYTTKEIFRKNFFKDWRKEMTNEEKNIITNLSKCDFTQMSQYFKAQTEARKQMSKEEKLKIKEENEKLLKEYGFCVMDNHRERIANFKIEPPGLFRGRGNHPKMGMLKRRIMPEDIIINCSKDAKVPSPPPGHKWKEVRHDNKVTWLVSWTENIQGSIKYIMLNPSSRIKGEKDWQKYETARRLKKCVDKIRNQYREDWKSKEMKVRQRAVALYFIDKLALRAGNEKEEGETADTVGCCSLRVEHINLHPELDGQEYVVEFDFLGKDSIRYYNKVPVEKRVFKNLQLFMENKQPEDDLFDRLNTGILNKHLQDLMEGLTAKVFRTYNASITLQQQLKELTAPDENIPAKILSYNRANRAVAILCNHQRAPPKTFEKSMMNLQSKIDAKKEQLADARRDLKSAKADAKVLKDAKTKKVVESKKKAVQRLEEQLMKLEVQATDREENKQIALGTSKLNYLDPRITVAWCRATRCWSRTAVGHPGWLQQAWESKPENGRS
Assay: Inhibition of calf thymus DNA topoisomerase 1 assessed as reduction in enzyme-mediated relaxation of supercoiled pBR322 plasmid DNA at 10 uM after 30 mins by agarose gel electrophoresis
The source made the active and inactive calls. The calls are words filed in the database; no cut-off is given here.
measured.attribute: inhibition

Reference set (5 entries):
smiles.repr: COc1cc2c(ccc3c4c(=O)oc5cc(O)c(OC)cc5c4n(C)c23)cc1O
inhibition: Active
--
smiles.repr: COc1cc2c(ccc3c4c(=O)oc5cc(OC(=O)[C@@H](N)C(C)C)c(OC)cc5c4n(C)c23)cc1OC(=O)[C@@H](N)C(C)C.O=C(O)C(F)(F)F.O=C(O)C(F)(F)F
inhibition: Active
--
smiles.repr: CC[C@@]1(O)C(=O)OCc2c1cc1n(c2=O)Cc2cc3ccccc3nc2-1
inhibition: Active
--
smiles.repr: COc1cc2c(ccc3c2[nH]c2c4cc(OC)c(O)cc4oc(=O)c32)cc1O
inhibition: Active
--
smiles.repr: COc1cc2c(ccc3c4c(=O)oc5cc(O)c(OC)cc5c4n(CCN(C)C)c23)cc1O
inhibition: Active

Answer with the recorded inhibition for the molecule listed here: `COc1cc(-c2c3c4cc(OC)c(O)cc4oc(=O)c3n3ccc4cc(O)c(OC)cc4c23)ccc1O`
Active
